Values compiled from patent US20050261290A1.

Biological target: UniProt:P28845
Sequence (P28845 whole entry): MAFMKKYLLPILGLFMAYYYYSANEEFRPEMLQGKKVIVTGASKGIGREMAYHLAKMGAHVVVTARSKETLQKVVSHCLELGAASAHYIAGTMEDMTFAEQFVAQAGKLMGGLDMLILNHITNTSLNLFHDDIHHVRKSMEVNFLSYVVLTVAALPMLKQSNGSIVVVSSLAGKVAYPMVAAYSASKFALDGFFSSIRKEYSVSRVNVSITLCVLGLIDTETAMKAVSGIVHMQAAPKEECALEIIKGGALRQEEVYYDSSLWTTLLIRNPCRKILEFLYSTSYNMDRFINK
Assay: Inhibition constant Ki of human 11b-hsd-1 (3H-cortisone to 3H-cortisol conversion, HPLC)
Format: biochemical
Settings: compound at 0.1 μM
test.readout: inhibition at 0.1 µM (%)
Reply with just the number (in %).

Enquiry: Check the records and state inhibition at 0.1 µM for CCCN1CCC[C@@H]1C(=O)N[C@@H]1CCCc2ccccc21
Return: 92

Enquiry: Check the records and state inhibition at 0.1 µM for CC(C)(C)OC(=O)N1CCC(CN2CCC[C@@H]2C(=O)NC2C3CC4CC(C3)CC2C4)C1 (stereo partly shown)
Return: 100

Enquiry: Check the records and state inhibition at 0.1 µM for CC(C)CN1CCC[C@@H]1C(=O)NCc1ccccc1
Return: 94

Enquiry: Check the records and state inhibition at 0.1 µM for O=C(NC1C2CC3CC(C2)CC1C3)[C@H]1COCCN1Cc1ccccc1 (stereo partly shown)
Return: 100
